# assaySystem: Escherichia coli CTP synthetase (EcCTPS) (Escherichia coli)
# Sequence (P0A7E5 whole entry): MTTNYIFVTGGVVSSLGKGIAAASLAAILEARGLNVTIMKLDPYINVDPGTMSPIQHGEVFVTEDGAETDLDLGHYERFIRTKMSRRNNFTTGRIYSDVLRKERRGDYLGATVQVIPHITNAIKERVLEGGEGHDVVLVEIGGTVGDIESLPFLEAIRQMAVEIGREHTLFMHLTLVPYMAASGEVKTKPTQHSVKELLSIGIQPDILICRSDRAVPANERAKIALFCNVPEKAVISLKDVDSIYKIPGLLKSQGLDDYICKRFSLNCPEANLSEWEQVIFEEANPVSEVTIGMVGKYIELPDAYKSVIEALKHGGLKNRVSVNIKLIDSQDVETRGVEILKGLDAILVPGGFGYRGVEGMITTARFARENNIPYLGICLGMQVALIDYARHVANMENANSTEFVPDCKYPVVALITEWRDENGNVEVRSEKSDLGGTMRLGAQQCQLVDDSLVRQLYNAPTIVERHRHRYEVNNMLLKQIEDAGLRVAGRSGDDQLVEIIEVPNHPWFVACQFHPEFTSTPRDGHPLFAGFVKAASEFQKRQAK
# experimentalDetails: CTP synthesis assay
# conditionsUsed: IC50, 50 μM GTP; otherwise standard
resultType: pIC50
Field pIC50 (float): negative decimal logarithm of the concentration in molar.

Can you share its pIC50? I mean this molecule: Nc1ccn([C@@H]2O[C@H](COP(=O)(O)OP(=O)(O)OP(=O)(O)O)[C@@H](O)[C@H]2O)c(=O)n1 [CTP, cytidine-5’-triphosphate]
3.21

----------
# assaySystem: E277R EcCTPS (Escherichia coli, UniProt P0A7E5, E277R)
# Sequence (P0A7E5 whole entry E277R): as the sequence (P0A7E5 whole entry) above, with E277R counted along it
# experimentalDetails: CTP synthesis assay, filament-blocking mutant E277R EcCTPS
resultType: pEC50
Here pEC50 is given on a logarithmic scale as minus log10 of the concentration in mol/L.

Consider the compound shown here: Nc1nc2c(ncn2[C@@H]2O[C@H](COP(=O)(O)OP(=O)(O)OP(=O)(O)O)[C@@H](O)[C@H]2O)c(=O)[nH]1 [GTP, guanosine-5’-triphosphate] What is its recorded pEC50?
4.34

Values were extracted from paper PMC5584805.
